target: H3 receptors (Cavia porcellus)
Sequence (Q9JI35 whole entry): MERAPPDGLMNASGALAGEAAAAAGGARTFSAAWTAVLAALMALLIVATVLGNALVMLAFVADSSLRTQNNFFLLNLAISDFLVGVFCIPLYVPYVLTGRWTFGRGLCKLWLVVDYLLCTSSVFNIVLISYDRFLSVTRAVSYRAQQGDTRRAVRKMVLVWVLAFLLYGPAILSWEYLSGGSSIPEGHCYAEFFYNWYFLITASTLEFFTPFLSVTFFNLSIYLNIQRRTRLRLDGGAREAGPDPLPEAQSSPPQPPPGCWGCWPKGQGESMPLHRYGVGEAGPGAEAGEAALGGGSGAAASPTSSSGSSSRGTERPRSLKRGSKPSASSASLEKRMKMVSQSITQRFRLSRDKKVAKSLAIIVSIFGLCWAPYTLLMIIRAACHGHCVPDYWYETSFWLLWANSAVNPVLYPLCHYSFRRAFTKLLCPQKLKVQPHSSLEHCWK
recorded_metric: Ki (nM)
Record the value in nM, omitting the unit from your answer.

// known answers, use as guide
O=C(/C=C/c1ccc(Cc2c[nH]cn2)cc1)Nc1ccc(F)cc1 ... 5
O=C(/C=C/c1ccc(Cc2c[nH]cn2)cc1)Nc1cccc(OC(F)(F)F)c1 ... 8
O=C(/C=C/c1ccc(Cc2c[nH]cn2)cc1)NCCc1ccc(Cl)cc1Cl ... 36

GET /values?readout=Ki&item= COc1cccc(NC(=O)/C=C/c2ccc(Cc3c[nH]cn3)cc2)c1
3

----------
Record set of pKi for target or system H3 receptors (Cavia porcellus, UniProt Q9JI35).
Field pKi (float): negative decimal logarithm of the concentration in molar.

// known answers, use as guide
O=C(/C=C/c1ccc(Cc2c[nH]cn2)cc1)NCCc1cccc(F)c1 ... 8.00
COc1ccc(CCNC(=O)/C=C/c2ccc(Cc3c[nH]cn3)cc2)cc1 ... 8.15

// moving on: another record for pKi
GET /values?readout=pKi&item= O=C(/C=C/c1ccc(Cc2c[nH]cn2)cc1)NCCc1ccsc1
7.92
